# Target Or Test System: rSARS2-B.1.1.7 S aa16-1211 4x aa mut., C-His (SARS-CoV-2, UniProt P0DTC2 16-1211)
# Assay Name: flow cytometry, blocking of binding to hACE-2 cells
Measured Metric: percent blocking (%)
Give just the number in %; leave the unit off.

Use these answered entries as a reference point.
binder="1035755 (antibody, V domains shown) VH: EVQLQQSGAELVRPGALVKLSCKASGFNIKDYYMHWVKQRPEQGLEWIGWIDPENGNSIYDPKFQGKASITADTSSNTAYLQLSSLTSEDTAVYYCATPSATSYFDYWGQGTTLTVSS VL: QIVLTQSPAIMSASPGEKVTISCSASSSVSYMYWYQQKPGSSPKPWIYRTSNLASGVPARFSGSGSGTSYSLTISSMEAEDAATYYCQQYHSYPYMYTFGGGTKLEIK" numeric_value=35.8
binder="1035211 (antibody, V domains shown) VH: QVQLQQSGAELARPGASVKMSCKASGYTFTNYTMHWVKQRPGQGLEWIGYINPSSGYTNYNQKFKDKATLTADKSSSTAYMQLSSLTSEDSAVYYCARRNPLYAMDYWGQGTSVTVSS VL: DIKMTQSPSSMYASLGERVTITCKASQDINSYLNWFQQKPGKSPKTLIYRANRLVDGVPSRFSGSGSGQDYSLTISSLEFEDMGIYYCLQYDEFPYTFGGGTKLEIK" numeric_value=72.4
binder="1035753 (antibody, V domains shown) VH: EVQLQQSGAELVRPGALVKLSCKASGFNIKDYYMHWVKQRPEQGLEWIGWIDPENGNTIYDPKFLGKASITADTSSNTAYLQLSSLTSEDTAVYYCARWYYYAMDSWGQGTSVTVSS VL: DIQMTQTTSSLSASLGDRVTISCSASQGISNYLNWYQQKPDGTVKLLIYYTSSLHSGVPSRFSGSGSGTDYSLTISNLEPEDIATYYCQQYSKLPFTFGGGTNLEMK" numeric_value=81.2
binder="1035224 (antibody, V domains shown) VH: EVQLQQSGAEFVRPGALVKLSCKASGFNIKDDYMHWVKQRPEQGLEWIGWIDPENGNSIYDPKFQGKASITADTSSNTAYLQLSSLTSEDTAVYYCARGEYFGSGSFAYWGQGTLVTVSA VL: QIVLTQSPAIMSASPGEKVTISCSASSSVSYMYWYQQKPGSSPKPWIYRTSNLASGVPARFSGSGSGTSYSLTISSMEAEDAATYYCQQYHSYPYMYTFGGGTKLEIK" numeric_value=74.1
binder="1035762 (antibody, V domains shown) VH: EVQLQQSGPELVKPGASVKISCKTSGYTFTEYTMHWVKQSHGKSLEWIGGINPNNGDTGYNQKFKGKATLTVDKSSSTAYMELRSLTFEDSAVYYCARDGYPLYYAMDYWGQGTSVTVSS VL: DIQMTQSPSSLSASLGERVSLTCRASQEISGYLCWLQQKPDGTIKRLIYAASTLDSAVPKRFSGSRSGSDYSLTISSLESEDFADFYCLQYASYPWTFGGGTKLEIK" numeric_value=75.2
binder="1035433 (antibody, V domains shown) VH: QVQLQQSGPQLVRPGASVKISCKASGYSFTIYWMHWVQQRPGQGLEWIGMIDPSDSETRLNQKFKDKATLTVDKSSSTAYMQLSSPTSEDSAVYYCARRGDYNFDYWGQGTTLTVSS VL: DIVMTQAAPSVPATPGESVSISCRSSKSLLHSNGNTYLYWFLQRPGQSPQLLIFRMSNLASGVPDRFSGSGSGTAFTLRISRVEAEDVGVYYCMQHLEYPYTFGGGTKLEIK" numeric_value=23.5

Read the next record carefully.
percent blocking in this record for 1035240 (antibody, V domains shown) VH: QVQLQQSGAELARPGASVKMSCKASGYTFTTYTMHWVKQRPGQGLEWIGYINPSSGYTNYNQKFKDKATLTADTSSSTAYMQLSSLTSEDSAVYYCARRNPLYAMDYWGQGTSVTVSS VL: DIKMTQSPSSMYASLGERVTITCKASQDINSYLNWFQQKPGKSPKTLIYRANRLVDGVPSRFSGSGSGQDYSLTISSLEYEDMGIYYCLQYDEFPYTFGGGTKLEIK : 78.6
